assay comment: Primary qHTS for inhibitors of nuclear receptor binding SET domain protein 2 (NSD2) in an isogenic RCH-ACV NSD2 p.E1099K mutant (9B) (AID 1645876); note: nearly all actives have a fitted effect of over 70% in size
setup conditions: RCH-ACV (leukaemia line) NSD2 E1099K (9B) viability, CellTiter-Glo, 72 h; series mostly up to 44.9 µM
Results filed as inconclusive are left out. Active and inactive are the calls of the source. Calls come from the whole dose curve; as a rule, active = well fitted inhibition curve with a large enough effect; inconclusive = small, poorly fitted or top-dose-only effect; inactive = flat fitted curve, though single readings scatter.
Possible outcomes: T for active, F for inactive

compound | classification
C[C@@H](N)c1ccc(C(=O)Nc2ccnc3[nH]ccc23)cc1 | T
CN1C(=O)C(Cc2c[nH]c3ccccc23)NC1=S (stereo not given) | F
Nc1ncnc2c1ncn2[C@@H]1O[C@H](CO)[C@@H](O)[C@@H]1O | T
Cc1ccccc1-n1c(Cn2nc(-c3cccc(O)c3)c3c(N)ncnc32)nc2cccc(C)c2c1=O | T
CC1CNc2c(cccc2S(=O)(=O)N[C@@H](CCCN=C(N)N)C(=O)N2CC[C@@H](C)C[C@@H]2C(=O)O)C1 (stereo not given in full) | F
CCOC(=O)N1c2ccc(C(F)(F)F)cc2[C@@H](N(Cc2cc(C(F)(F)F)cc(C(F)(F)F)c2)C(=O)OC)C[C@H]1CC | F
c1cc(OCCN2CCCCC2)cc(-c2n[nH]c3ccc(-c4ncn[nH]4)cc23)c1 | T
Cn1c(=O)c(-c2c(Cl)cccc2Cl)cc2cnc(Nc3cccc(C(=O)O)c3)nc21 | F
Cc1ccccc1C(C(=O)NC1CCCCC1)N(C(=O)CNc1ccc(C#N)cc1)c1cccc(F)c1 (stereo not given) | F
Cc1ccc(S(=O)(=O)OCC(=O)Nc2ccc(C(=O)O)c(O)c2)cc1 | F
COc1ccc(-c2oc3c(CC=C(C)C)c(O)cc(O)c3c(=O)c2O)cc1 | F
CCC[C@H](N[C@@H](C)C(=O)N1[C@@H]2CCCC[C@H]2C[C@H]1C(=O)O)C(=O)OCC | F
CN1c2ccccc2C(=O)N2CCc3c([nH]c4ccccc34)C21 (stereo not given) | T
O=C(CC12CC3CC(CC(C3)C1)C2)Nc1cccc2nc(NCCNCCO)ccc12 | T
Cc1cc2nc3c(=O)[nH]c(=O)nc-3n(CC(O)C(O)C(O)CO)c2cc1C (stereo not given) | F
CCC[C@H](Nc1nc(-c2ccc(NC(=O)NCC)c(OC)c2)ncc1C)c1cccnc1 | T
CN1CC(=O)NC1=NC(=O)Nc1cccc(Cl)c1 | F
Nc1ncnc2c1c(-c1cccc(OCc3ccccc3)c1)cn2C1CC(CN2CCC2)C1 (stereo not given) | T
OC1CCC(Nc2ncc3nc(Nc4c(F)cc(F)cc4F)n([C@@H]4CCOC4)c3n2)CC1 (stereo not given in full) | F
CC(C)[C@H](O)C(=O)N[C@@H](C)C(=O)N[C@@H]1C(=O)N(C)CCc2ccccc21 | F

Values were extracted from PubChem BioAssay (NCATS).
